tested on: MRC-5 cells; assay: MTT cytotoxicity assay, MRC-5 normal fibroblasts; assay type: cell-based, human; conditions: Homo sapiens, MRC5, 72 h, MTT, 72 h after treatment, mean ± SEM; healthy cell line
measure.name: IC50 (µM)
Give bare numbers, in µM.

// known answers, use as guide
molecule	u	IC50
COc1ccc2c(c1)c(CC(=O)O)c(C)n2C(=O)c1ccc(Cl)cc1 [Indomethacin, reference compound]	µM	79.8
CC(c1cc2ccccc2s1)N(O)C(N)=O (stereo not shown) [Zileuton, reference compound]	µM	95.7

List reported IC50 for each of these molecules:
1. CC(C)(C)c1cc(/C=C2\SC(=S)N(N)C2=O)cc(C(C)(C)C)c1O
2. CC(NC(=O)NO)c1ccc(-c2ccccc2)c(F)c1 (stereo not shown)
3. CCOc1ccccc1NC(=O)Nc1ccc([N+](=O)[O-])cc1
4. COc1ccc2c(c1)c(CNC(=O)NO)c(C)n2C(=O)c1ccc(Cl)cc1
5. CC(=O)N(O)C(C)c1ccc(CC(C)C)cc1 (stereo not shown)
6. COC(=O)C(Cc1cnc[nH]1)NC(=O)c1cc(C(C)(C)C)c(O)c(C(C)(C)C)c1 (stereo not shown)

[57.1, 69.1, 18.7, 9.68, 57.1, 35.4]

# credit: paper PMC11207729
